Tested on: Acinetobacter baumannii ATCC 17978
Assay: Antimicrobial susceptibility testing: 90% growth inhibitory concentration (IC90) determination
Assay type: cell-based
Conditions: Acinetobacter baumannii, ATCC17978, 16 h, 90% growth inhibitory concentration; Acinetobacter baumannii ATCC17978; Iso-Sensitest broth, OD 600 nm over 16h; read-out: ATCC17978 IC90
Counter-ions that a name gives are not always drawn.
Label key: YES means IC90 under 200 nM; NO means IC90 of 200 nM or more.

Here's what some known entries look like.
                                   compound  labelclass
0  COc1ccc(-c2cnc3c(Nc4ccc(C(=O)NCCNC(=O)[C@@H]5C[C@@H](O)CN5)c(C)c4)nccn23)c(F)c1F [Example 363]         YES
1  Cc1cc(Nc2nccn3c(-c4ccc(OC(F)F)cc4)cnc23)ccc1C(=O)N(C)CCCN1CCCCC1 [Example 257]          NO

Query: Problem: For the compound COc1ccc(-c2cnc3c(Nc4ccc(C(=O)N(C)Cc5cccnc5)c(C)c4)nccn23)cc1F [Example 38] , is IC90 under 200 nM?
Result: YES

Query: Problem: For the compound CCc1cc(Nc2nccn3c(-c4ccc(OC)c(F)c4F)cnc23)ccc1C(=O)NCC1CN(C(=O)CN)C1 [Example 532, formic acid] , is IC90 under 200 nM?
Result: YES

Query: Problem: For the compound COc1ccc(-c2cnc3c(Nc4ccc(C(=O)NCC5CCNCC5)c(C)c4)nccn23)cc1F [Example 213] , is IC90 under 200 nM?
Result: NO

Query: Problem: For the compound Cc1cc(Nc2nccn3c(-c4ccc(OC(F)F)cc4)cnc23)ccc1C(=O)NCCN1CCNCC1 [Example 46] , is IC90 under 200 nM?
Result: NO

Query: Problem: For the compound COc1ccc(-c2cnc3c(Nc4ccc(C(=O)NCCCCCCN)c(C)c4)nccn23)cc1 [Example 10, hydrochloride] , is IC90 under 200 nM?
Result: YES

The measurements presented in this section are drawn from patent US20230012368A1.
